test: Acute toxicity (LD50, 24 hours, intraperitoneal); settings: mouse, in vivo, ip
Where a name gives a salt, the structure may show the parent alone.
LD50 at 24 h for assorted compounds
Measured property: LD50 at 24 h

>>> result("Br.Br.Cc1cc(-c2ccc(O)cc2)nnc1NCCN1CCOCC1")
"> 200 mg/kg"
>>> result("Cc1cc(-c2ccccc2)nnc1NCCN1CCOCC1=O [CM 30488, HYDROCHLORIDE]")
"> 300 mg/kg"
>>> result("Cc1cc(-c2ccccc2)nnc1NCC[N+]1([O-])CCOCC1")
"> 200 mg/kg"
>>> result("Cc1cc(-c2ccccc2)nnc1NCCNCCO [CM 30311, DIHYDROCHLORIDE]")
"> 200 mg/kg"
>>> result("Cc1cc(-c2ccccc2)nnc1N [CM 30465, (HYDROCHLORIDE)]")
"226 mg/kg"

----------
system: mice; test: Convulsivant threshold dose (same experiments as acute toxicity); assay type: in vivo, mouse; settings: mouse, in vivo, ip
Measured property: Convulsivant threshold dose (mg/kg)

>>> number("Cc1cc(-c2ccccc2)nnc1NCC[N+]1([O-])CCOCC1")
300
>>> number("Cc1cc(-c2ccccc2)nnc1NCCN1CCOCC1 [Minaprine, reference compound]")
35
>>> number("Br.Br.Cc1cc(-c2ccc(O)cc2)nnc1NCCN1CCOCC1")
200

----------
test system: mice; assay: Convulsivant threshold dose (same experiments as acute toxicity); assay type: in vivo, mouse; conditions: mouse, in vivo, ip
Where a name gives a salt, the structure may show the parent alone.
Convulsivant threshold dose for assorted molecules
Measured property: Convulsivant threshold dose (mg/kg)

>>> number("Cc1cc(-c2ccccc2)nnc1N [CM 30465, (HYDROCHLORIDE)]")
200
>>> number("Cc1cc(-c2ccccc2O)nnc1NCCN1CCOCC1 [SR 95070]")
200
>>> number("CCN(CCO)CCNc1nnc(-c2ccccc2)cc1C [SR 95084]")
200
>>> number("Cc1cc(-c2ccccc2)nnc1NCCN1CCOCC1=O [CM 30488, HYDROCHLORIDE]")
300
>>> number("Cc1cc(-c2ccccc2)nnc1NCCNCCO [CM 30311, DIHYDROCHLORIDE]")
200

----------
experiment: Acute toxicity (LD50, 24 hours, intraperitoneal); details: mouse, in vivo, ip; mice; mortality during 24 hours
Measured property: LD50 at 24 h

>>> result("Cc1cc(-c2cccc(O)c2)nnc1NCCN1CCOCC1")
"> 200 mg/kg"
>>> result("CCN(CCO)CCNc1nnc(-c2ccccc2)cc1C")
"100 to 200 mg/kg"
>>> result("COc1ccc(-c2cc(C)c(NCCN3CCOCC3)nn2)cc1 [CM 30073, reference compound]")
"19 mg/kg"
>>> result("Cc1cc(-c2ccccc2O)nnc1NCCN1CCOCC1")
"> 200 mg/kg"
>>> result("Cc1cc(-c2ccc(O)cc2)nnc1N")
"> 200 mg/kg"
